Each entry below lists one item and its recorded IC50 value.
Molecular target: human NaV1.8 (Homo sapiens, UniProt Q9Y5Y9)
Sequence (Q9Y5Y9 whole entry): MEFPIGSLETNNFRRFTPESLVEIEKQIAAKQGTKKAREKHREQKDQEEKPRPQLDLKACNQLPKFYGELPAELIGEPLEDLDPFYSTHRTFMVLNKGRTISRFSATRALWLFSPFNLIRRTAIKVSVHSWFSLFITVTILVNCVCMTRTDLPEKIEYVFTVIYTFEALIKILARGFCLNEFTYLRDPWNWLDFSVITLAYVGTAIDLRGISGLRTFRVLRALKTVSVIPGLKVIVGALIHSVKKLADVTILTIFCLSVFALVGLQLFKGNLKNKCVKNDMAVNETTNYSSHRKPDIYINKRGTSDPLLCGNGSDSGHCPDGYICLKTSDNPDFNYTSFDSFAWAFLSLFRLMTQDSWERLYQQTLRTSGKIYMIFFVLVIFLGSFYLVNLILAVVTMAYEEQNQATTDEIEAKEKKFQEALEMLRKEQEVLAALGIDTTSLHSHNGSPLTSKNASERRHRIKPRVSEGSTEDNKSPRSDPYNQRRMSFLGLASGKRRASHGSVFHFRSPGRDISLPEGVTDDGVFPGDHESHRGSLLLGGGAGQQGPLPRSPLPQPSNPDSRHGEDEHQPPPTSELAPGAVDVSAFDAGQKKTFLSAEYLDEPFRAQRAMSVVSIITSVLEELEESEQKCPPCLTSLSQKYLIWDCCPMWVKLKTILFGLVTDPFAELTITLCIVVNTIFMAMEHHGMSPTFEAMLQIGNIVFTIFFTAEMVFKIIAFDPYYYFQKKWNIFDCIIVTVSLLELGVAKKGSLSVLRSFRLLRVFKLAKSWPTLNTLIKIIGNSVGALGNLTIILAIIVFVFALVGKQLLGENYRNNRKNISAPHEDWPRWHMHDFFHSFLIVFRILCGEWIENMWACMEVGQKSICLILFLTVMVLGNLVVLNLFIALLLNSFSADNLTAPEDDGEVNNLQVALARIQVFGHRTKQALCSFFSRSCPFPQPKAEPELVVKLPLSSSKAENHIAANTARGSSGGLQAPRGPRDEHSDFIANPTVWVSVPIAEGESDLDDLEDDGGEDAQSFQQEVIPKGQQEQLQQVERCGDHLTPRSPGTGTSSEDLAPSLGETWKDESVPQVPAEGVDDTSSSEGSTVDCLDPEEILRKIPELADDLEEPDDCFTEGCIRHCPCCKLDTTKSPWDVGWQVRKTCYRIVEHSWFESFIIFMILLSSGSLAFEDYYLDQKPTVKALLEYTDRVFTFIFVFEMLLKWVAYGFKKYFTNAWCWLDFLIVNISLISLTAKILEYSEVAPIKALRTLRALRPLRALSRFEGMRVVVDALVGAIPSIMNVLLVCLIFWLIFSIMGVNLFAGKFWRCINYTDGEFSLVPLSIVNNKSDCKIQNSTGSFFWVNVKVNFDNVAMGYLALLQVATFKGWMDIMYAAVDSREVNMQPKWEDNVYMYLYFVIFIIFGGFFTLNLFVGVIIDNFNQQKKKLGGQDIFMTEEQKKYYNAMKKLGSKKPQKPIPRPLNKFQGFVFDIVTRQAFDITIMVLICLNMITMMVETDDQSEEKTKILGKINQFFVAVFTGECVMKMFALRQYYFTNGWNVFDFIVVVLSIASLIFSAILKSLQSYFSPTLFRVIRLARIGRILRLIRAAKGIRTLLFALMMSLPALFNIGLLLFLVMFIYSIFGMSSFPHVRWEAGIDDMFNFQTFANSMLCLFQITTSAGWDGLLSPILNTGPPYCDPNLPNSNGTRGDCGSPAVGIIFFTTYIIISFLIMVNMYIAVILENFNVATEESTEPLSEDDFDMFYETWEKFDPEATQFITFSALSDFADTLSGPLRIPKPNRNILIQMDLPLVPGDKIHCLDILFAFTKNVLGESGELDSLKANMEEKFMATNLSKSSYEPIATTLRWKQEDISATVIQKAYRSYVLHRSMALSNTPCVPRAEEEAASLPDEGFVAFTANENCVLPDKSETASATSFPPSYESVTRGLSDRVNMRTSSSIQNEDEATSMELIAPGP
Assay: Nav1.8 Qube® Assay (automated 384-well patch-clamp, inhibition of sodium current)
Details: human NaV1.8 channels stably expressed in HEK 293 cells, room temperature
measurement.type: IC50 (nM)

[[record]]
molecule = "C[C@@H]1C(=O)NCCN1C(=O)NC(c1ccc(F)c(Cl)c1F)C1CC(F)(F)C1 (single isomer, unassigned) [Example 24B]"
measurement_type = "IC50"
value_reported = 29.1

[[record]]
molecule = "C[C@@H]1C(=O)NCCN1C(=O)NC(C)(c1ccc(F)c(Cl)c1)C1CC(C(F)(F)F)C1 (single isomer, unassigned) [Example 48A]"
measurement_type = "IC50"
value_reported = 4370

[[record]]
molecule = "C[C@@H]1C(=O)NCCN1C(=O)NC(c1ccc(Cl)c(C(F)(F)F)n1)C1CC(C(F)(F)F)C1 (single isomer, unassigned) [Example 47B]"
measurement_type = "IC50"
value_reported = 61.8


Data origin, for the record: patent US20220380338A1
